Cited source for all entries: PubChem BioAssay (NCI)

# Test system: SK-MEL-28 melanoma
# Assay comment: NCI tumour cell line growth inhibition, 48 h
Endpoint label: TGI

Known results for compounds:
{"Compound": "COC(=O)[C@@H]1[C@H](O)[C@H](C)[C@H](O)[C@H](C)/C=C\\C=C(C)C(=O)Nc2c(C)c(OC(C)=O)c3c(c2O)C(=O)C(C)=C2OCOC(=C23)C(C)=C[C@@](C)(O)[C@H](O)[C@@H](C)[C@H]1OC(C)=O", "Target of assay": "SK-MEL-28 melanoma", "TGI": "> 100 µM"}
{"Compound": "CC(=O)Oc1cc(/C=C/c2ccc(O)cc2)cc(OC(C)=O)c1", "Target of assay": "SK-MEL-28 melanoma", "TGI": "> 100 µM"}
{"Compound": "CC1(C)N([O-])[N+](=O)C1(Br)c1ccccc1 (centres undefined)", "Target of assay": "SK-MEL-28 melanoma", "TGI": "> 100 µM"}

Lab book: TGI of `CC(C)(C)OC(=O)NCC(=O)N(CCc1ccc(Cl)c(Cl)c1)CCN1CCCC1` noted as 29.7 µM

Lab book: TGI of CNC1=CC(=O)C2=C(C1=O)C1C3=C(C(=O)C(Br)=C(OC)C3=O)C2c2ccccc21 (centres undefined) noted as > 50 µM

Lab book: TGI of `Cc1ccc(N(/C=C/C(=O)C(F)(F)F)CC(=O)c2ccc(Cl)c(Cl)c2)cc1` noted as 23.2 µM

Lab book: TGI of COc1cccc(N2C(=O)C3c4[nH]c5ccc(C)cc5c4C4CCC(C)CC4C3C2=O)c1 (centres undefined) noted as > 100 µM

Lab book: TGI of COc1cc(/C=C2\CC(C)C/C(=C\c3ccc(O)c(OC)c3)C2=O)ccc1O (centres undefined) noted as 8.95 µM

Lab book: TGI of CNC12C3C4C1C1C2C3C41C(=O)N[C@H](C(=O)N(C)[C@H](C[C@@H](OC(C)=O)c1nc(C(=O)N[C@@H](Cc2ccccc2)C[C@H](C)C(=O)OC)cs1)C(C)C)C1CC1 (some centres undefined) noted as > 15 µM

Lab book: TGI of `Cc1ncc(COP(=O)(O)O)c(C)c1O` noted as > 100 µM

====

# Test system: SN12C renal
# Assay comment: NCI tumour cell line growth inhibition, 48 h
Endpoint label: TGI (µM)
Numeric only. Scale: µM

Lab book: TGI of `COc1ccc2cc(/C=N\NC(=O)Nc3ccc([N+](=O)[O-])cc3)ccc2c1` noted as 18

Lab book: TGI of `N=C(N)SCCN1CCCCC1` noted as 73.4

Lab book: TGI of `CC(C)(C)OC(=O)NCC(=O)N(CCc1ccc(Cl)c(Cl)c1)CCN1CCCC1` noted as 32.7

====

Listing: TGI of selected compounds
# System: RPMI-8226 leukemia
# Assay comment: NCI tumour cell line growth inhibition, 48 h

{"Compound": "COC(=O)C1=CO[C@@H](OC2OC(CO)C(O)C(O)C2O)[C@@H]2[C@H](C)[C@@H](O)[C@@H](O)[C@]12O (some centres undefined)", "TGI": "> 100 µM"}
{"Compound": "O=C(c1ccc(Cl)c(Cl)c1)N(C(=O)N1CCN(c2ccccc2)CC1)S(=O)(=O)c1ccccc1", "TGI": "> 100 µM"}
{"Compound": "CCOC(=O)CNC(=O)CNC(=O)CNC(=O)CNNc1c(OCc2ccccc2)c(=O)c1=O", "TGI": "> 100 µM"}
{"Compound": "C[N+]1(c2ccccc2)C=C(c2ccccc2)SC1=S (centres undefined)", "TGI": "> 100 µM"}
{"Compound": "COc1cc(/C=C2\\NC(=S)C3Cc4c(OC)c(C)c(OC)c(OC)c4C2N3C)c(OC)c(C)c1OC (centres undefined)", "TGI": "> 100 µM"}

Lab book: TGI of C=C1C(=O)OC2/C=C(\C)CC/C=C(\C)CC(OC(=O)/C(=C/CO)CO)[C@@H]12 (some centres undefined) noted as 5.74 µM

Lab book: TGI of `CN(N=O)C(=O)Nc1ccc(C(=O)O)cc1` noted as > 100 µM

Lab book: TGI of CC(=O)[O][Hg][CH2]C1(C)COC(C)([CH2][Hg][O]C(C)=O)CO1 (centres undefined) noted as 8.29 µM

Lab book: TGI of C=CCN1C(=O)/C(=C/c2ccc(OC)cc2)N=C1SC1OC(COC(C)=O)C(OC(C)=O)C(OC(C)=O)C1OC(C)=O (centres undefined) noted as > 100 µM
